Measured values drawn from patent US8461328B2 for this set.

biological target: JAK1 (Homo sapiens, UniProt P23458); construct: made in house; host or cells: SF9 insect cells (baculovirus); assay: JAK1 inhibition (Table 4); assay type: biochemical; conditions: read-out: JAK1 Ki
Sequence (P23458 852-1154): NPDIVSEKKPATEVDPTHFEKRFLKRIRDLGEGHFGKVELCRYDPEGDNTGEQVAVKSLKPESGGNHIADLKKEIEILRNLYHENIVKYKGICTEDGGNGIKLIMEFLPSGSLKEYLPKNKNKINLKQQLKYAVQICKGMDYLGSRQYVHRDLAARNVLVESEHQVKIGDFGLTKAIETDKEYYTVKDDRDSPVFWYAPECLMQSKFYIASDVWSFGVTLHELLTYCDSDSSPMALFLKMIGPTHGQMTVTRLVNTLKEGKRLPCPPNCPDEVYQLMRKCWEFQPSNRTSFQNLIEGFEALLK

{"columns": ["compound", "studySystem", "Ki [nM]"],
 "data": [
  ["N#CCCN1CCC(n2c(CNC(=O)C3CC3)nc3cnc4[nH]ccc4c32)CC1", "JAK1 (Homo sapiens, UniProt P23458)", 28.7],
  ["N#CC1CCC(n2c(CO)nc3cnc4[nH]ccc4c32)CC1 (centres unmarked)", "JAK1 (Homo sapiens, UniProt P23458)", 1.3],
  ["N#CC1CCN([C@H]2CC[C@H](n3c(CO)nc4cnc5[nH]ccc5c43)CC2)CC1", "JAK1 (Homo sapiens, UniProt P23458)", 2.58],
  ["O=C(NC1CCC(n2cnc3cnc4[nH]ccc4c32)CC1)OCc1cccnc1 (centres unmarked)", "JAK1 (Homo sapiens, UniProt P23458)", 7.15],
  ["CC1CC(n2cnc3cnc4[nH]ccc4c32)CCN1 (racemic) [Example 230]", "JAK1 (Homo sapiens, UniProt P23458)", 47.8]
]}
